molecular target: TRPC5 (Homo sapiens); construct: expressed in transfected cells; host or cells: HEK 293; test: TRPC5 automated patch clamp assay (Qpatch), current block after rosiglitazone stimulation; type: cell-based; settings: Table 3; HEK293 cells overexpressing TRPC5; rosiglitazone stimulation; 100 mV; read-out: TRPC5_QP_ XC50_100
Sequence (Q9UL62 whole entry): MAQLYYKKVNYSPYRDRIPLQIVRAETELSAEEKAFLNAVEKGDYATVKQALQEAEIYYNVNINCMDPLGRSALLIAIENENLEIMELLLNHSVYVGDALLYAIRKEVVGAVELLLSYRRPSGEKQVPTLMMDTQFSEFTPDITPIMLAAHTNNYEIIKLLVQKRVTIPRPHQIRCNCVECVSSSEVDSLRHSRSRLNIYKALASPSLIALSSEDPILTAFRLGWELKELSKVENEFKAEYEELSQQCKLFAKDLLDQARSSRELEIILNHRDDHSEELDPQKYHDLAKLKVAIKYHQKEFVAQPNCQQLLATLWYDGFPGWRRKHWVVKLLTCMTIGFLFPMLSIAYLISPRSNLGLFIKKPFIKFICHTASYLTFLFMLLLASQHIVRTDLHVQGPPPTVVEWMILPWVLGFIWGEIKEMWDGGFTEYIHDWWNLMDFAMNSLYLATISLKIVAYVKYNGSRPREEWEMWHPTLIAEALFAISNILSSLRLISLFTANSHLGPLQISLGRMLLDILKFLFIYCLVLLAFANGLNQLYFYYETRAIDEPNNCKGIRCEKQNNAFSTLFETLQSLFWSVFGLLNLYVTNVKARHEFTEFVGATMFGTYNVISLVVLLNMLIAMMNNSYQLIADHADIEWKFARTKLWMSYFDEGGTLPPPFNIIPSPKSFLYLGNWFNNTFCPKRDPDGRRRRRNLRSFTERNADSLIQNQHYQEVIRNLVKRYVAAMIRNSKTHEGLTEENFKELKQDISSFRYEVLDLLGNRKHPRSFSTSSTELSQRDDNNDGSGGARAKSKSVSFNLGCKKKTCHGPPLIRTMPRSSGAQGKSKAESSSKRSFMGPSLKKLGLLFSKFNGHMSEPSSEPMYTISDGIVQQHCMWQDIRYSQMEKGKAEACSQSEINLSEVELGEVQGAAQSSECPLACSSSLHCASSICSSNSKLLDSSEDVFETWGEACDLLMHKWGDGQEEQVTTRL
pIC50: −log10 of the molar value.
assayEndpoint: pIC50

Worked set:
molecule | assayEndpoint | measured
O=c1[nH]ncc(N2CCN(Cc3ccccc3OC(F)(F)F)CC2)c1Br | pIC50 | 5.30 to 6.00
O=c1[nH]ncc(N2CCCNCC2)c1Br | pIC50 | 3.30 to 5.00
Cc1ccccc1CN1CCN(c2cn[nH]c(=O)c2C)CC1=O | pIC50 | 5.00 to 5.30
Cc1ccccc1CN1CCN(c2cn[nH]c(=O)c2Cl)CC1=O [drawing 664] | pIC50 | 6.00 to 11.00

**Q:** Fill in the blank: the reported pIC50 of Cc1ccccc1CN1CCN(c2cn[nH]c(=O)c2Br)CC1C (stereo not drawn) [drawing 649] is ____.
**A:** 3.30 to 5.00

**Q:** Queued: `Cc1ccccc1CN1C2CC1CN(c1cn[nH]c(=O)c1Br)C2`
**A:** 3.30 to 5.00
